Reference source: patent US10100001B2

Target: AC1 (Homo sapiens, UniProt Q08828)
Sequence (Q08828 whole entry): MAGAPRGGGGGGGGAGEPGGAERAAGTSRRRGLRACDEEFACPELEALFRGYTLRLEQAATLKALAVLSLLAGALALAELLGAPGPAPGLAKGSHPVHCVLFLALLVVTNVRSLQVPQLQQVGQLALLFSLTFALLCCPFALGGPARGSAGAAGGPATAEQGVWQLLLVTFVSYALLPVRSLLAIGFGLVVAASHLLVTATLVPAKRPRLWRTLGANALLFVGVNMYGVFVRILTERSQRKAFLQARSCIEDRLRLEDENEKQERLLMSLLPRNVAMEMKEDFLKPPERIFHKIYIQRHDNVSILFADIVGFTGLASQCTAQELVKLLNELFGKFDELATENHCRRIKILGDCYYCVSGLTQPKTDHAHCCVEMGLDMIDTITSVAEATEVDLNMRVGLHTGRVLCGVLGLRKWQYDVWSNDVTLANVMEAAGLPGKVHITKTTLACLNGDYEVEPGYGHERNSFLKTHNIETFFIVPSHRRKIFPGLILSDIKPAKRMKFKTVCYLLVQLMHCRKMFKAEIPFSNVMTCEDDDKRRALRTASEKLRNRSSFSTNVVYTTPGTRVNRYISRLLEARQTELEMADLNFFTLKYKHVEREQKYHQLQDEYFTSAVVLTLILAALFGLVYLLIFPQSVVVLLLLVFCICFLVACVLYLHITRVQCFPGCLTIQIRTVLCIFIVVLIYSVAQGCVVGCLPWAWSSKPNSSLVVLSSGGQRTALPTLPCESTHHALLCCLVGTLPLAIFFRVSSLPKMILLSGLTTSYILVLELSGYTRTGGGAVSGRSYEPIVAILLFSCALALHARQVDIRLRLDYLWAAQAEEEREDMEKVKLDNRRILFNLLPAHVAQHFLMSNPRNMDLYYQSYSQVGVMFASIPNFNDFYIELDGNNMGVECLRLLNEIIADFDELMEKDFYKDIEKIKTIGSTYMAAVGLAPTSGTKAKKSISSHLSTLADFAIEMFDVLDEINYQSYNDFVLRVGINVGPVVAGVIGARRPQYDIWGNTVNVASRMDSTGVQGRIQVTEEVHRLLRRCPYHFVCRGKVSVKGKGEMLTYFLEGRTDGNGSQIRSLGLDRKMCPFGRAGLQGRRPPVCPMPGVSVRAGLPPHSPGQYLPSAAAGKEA
Test: Inhibition of A23187-mediated (Ca2+-stimulated) cAMP accumulation in HEK cells stably expressing AC1
Settings: HEK cells stably expressing AC1; inhibitors 30 min, then 3 μM A23187 with IBMX; average and S.E.M. of at least three independent experiments; read-out: IC50 for inhibition of the A23187-mediated cAMP response of AC1
Recorded Endpoint: pIC50
The read-out pIC50 is expressed as -log10 of concentration in moles per litre.

Example entries and their recorded answers appear below.
>>> print(df.to_string())
                                   compound  recorded_endpoint  numeric_result
0  COc1ccc2c(c1)C(c1ccccc1)CN(C/C=C/c1ccc(C)cc1)CC2 (stereo not shown) [Compound 7jb]              pIC50            4.78
1  COc1ccc2c(c1)C(c1ccccc1)CN(C/C=C/c1ccc(Cl)cc1)CC2 (stereo not shown) [Compound 7je]              pIC50            5.04
2  C(=C\c1ccccc1)/CN(CCc1c[nH]c2ccccc12)Cc1ccccc1 [Compound 7aa]              pIC50            5.00

Let us examine a further case.
pIC50 for Brc1ccc(/C=C/CN(CCc2c[nH]c3ccccc23)Cc2ccccc2)cc1 [Compound 7ag] is 5.16
